System: Hep3B cells
ASSAY: Cell proliferation / cell viability, MTS assay
Format: cell-based
APPLIED_CONDITIONS: Homo sapiens, treated for 96 hours
pIC50: −log10 of the molar value.
ENDPOINT: pIC50

Reported pIC50 for Hep3B cells, given CC[C@H](Nc1ncnc2nc[nH]c12)c1nc2cccc(F)c2c(=O)n1-c1ccccc1 [idelalisib] ?
> 4.52
